Assay: Tmax in fasted Sprague-Dawley rat at 10 mg/kg, po measured for 24 hrs by LC-MS/MS analysis
Assay type: ADME, organism-based
Conditions: in vivo
ATTRIBUTE_MEASURED: Tmax (min)
Report the value in min with no unit label.

Tmax reading for "CC(C)N1CCN(c2ccc3[nH]c(-c4n[nH]cc4Nc4ncnc5[nH]ccc45)nc3c2)CC1" : 50

* * *

Experiment: Oral bioavailability in fasted Sprague-Dawley rat at 10 mg/kg measured for 24 hrs by LC-MS/MS analysis
Assay type: ADME, organism-based
Settings: in vivo
ATTRIBUTE_MEASURED: bioavailability
Please answer using the number first and the unit second.

Recorded result, "CC(C)N1CCN(c2ccc3[nH]c(-c4n[nH]cc4Nc4ncnc5[nH]ccc45)nc3c2)CC1" , bioavailability: 1.5%

* * *

Tested on: Ramos
Test: Inhibition of […] in serum-starved human Ramos cells incubated for 1 hr followed by anti-human IgM F(ab)2 measured after 5 mins
Assay type: functional, cell-based
One threshold, 40 nM, splits the recorded IC50 values: lower ones are Satisfied, equal or higher ones are Not satisfied.

Please check: IC50 for "Cc1cc2nc(-c3n[nH]cc3Nc3ncnc4[nH]ccc34)[nH]c2cc1C" , strictly under 40 nM or not? Not satisfied

# TODO verify IC50 < 40 nM strictly for this compound: "CN1CCN(c2ccc3[nH]c(-c4n[nH]cc4Nc4ncnc5[nH]ccc45)nc3c2)CC1" Not satisfied

Take the compound "c1cc(N2CCCC2)c2nc(-c3n[nH]cc3Nc3ncnc4[nH]ccc34)[nH]c2c1" and say whether its IC50 is less than 40 nM. Satisfied

Lab note: IC50 threshold 40 nM. Does this compound come in strictly under it? "COc1ccc2[nH]c(-c3n[nH]cc3Nc3ncnc4[nH]ccc34)nc2c1" Not satisfied

# TODO verify IC50 < 40 nM strictly for this compound: "CN(C)CCN(C)c1ccc2[nH]c(-c3n[nH]cc3Nc3ncnc4[nH]ccc34)nc2c1" Satisfied

Record "CC(C)N1CCN(c2ccc3[nH]c(-c4n[nH]cc4Nc4ncnc5[nH]ccc45)nc3c2)CC1" : is its IC50 strictly below 40 nM? Satisfied

* * *

Tested on: TMD8
Test: Antiproliferative activity against human TMD8 cells assessed as inhibition of cell viability incubated for 72 hrs by Cell Titer Glo assay
Format: functional, cell-based
Details: TMD8, 72 h
ATTRIBUTE_MEASURED: IC50 (nM)
Provide the reading as a plain figure in nM.

"CC(C)N1CCN(c2ccc3[nH]c(-c4n[nH]cc4Nc4ncnc5[nH]ccc45)nc3c2)CC1" tested on TMD8 gave IC50: 10.9

* * *

Test: Metabolic stability in human liver microsomes assessed as intrinsic clearance at […] incubated for 60 mins in presence of NADPH by LC-MS/MS analysis
Assay type: ADME, Microsome
Conditions: read-out: CLH
Please use true for microsomal CLint under 20 µL/min/mg and false for everything else, ties included.

Consider the following illustrative entries.
# GIVEN_SMILES, GROUP
measured = [
    ("Cc1cccc2[nH]c(-c3n[nH]cc3Nc3ncnc4[nH]ccc34)nc12", "true"),
    ("Cc1cc2nc(-c3n[nH]cc3Nc3ncnc4[nH]ccc34)[nH]c2cc1C", "false"),
    ("COc1cccc2[nH]c(-c3n[nH]cc3Nc3ncnc4[nH]ccc34)nc12", "true"),
    ("CN(C)c1ccc2[nH]c(-c3n[nH]cc3Nc3ncnc4[nH]ccc34)nc2c1", "false"),
    ("CN1CCN(c2ccc3[nH]c(-c4n[nH]cc4Nc4ncnc5[nH]ccc45)nc3c2)CC1", "true"),
]

Does the reported microsomal CLint of the following molecule sit strictly below 20 µL/min/mg? "c1cc(N2CCCC2)c2nc(-c3n[nH]cc3Nc3ncnc4[nH]ccc34)[nH]c2c1" false

Dear colleague, could you confirm whether microsomal CLint of "CCN(CC)c1ccc2[nH]c(-c3n[nH]cc3Nc3ncnc4[nH]ccc34)nc2c1" falls below 20 µL/min/mg? Thanks. false

Take the molecule "CC(C)N1CCN(c2ccc3[nH]c(-c4n[nH]cc4Nc4ncnc5[nH]ccc45)nc3c2)CC1" and say whether its microsomal CLint is less than 20 µL/min/mg. true

Regarding "C[C@@H]1CN(c2ccc3[nH]c(-c4n[nH]cc4Nc4ncnc5[nH]ccc45)nc3c2)C[C@H](C)O1" , kindly confirm whether its microsomal CLint is beneath 20 µL/min/mg. true

Lab note: confirm whether the reported microsomal CLint for this molecule is below 20 µL/min/mg, equality not counting. molecule: "c1nc(Nc2c[nH]nc2-c2nc3cc(OCCN4CCOCC4)ccc3[nH]2)c2cc[nH]c2n1" false

Is the reported microsomal CLint for "COc1ccc2[nH]c(-c3n[nH]cc3Nc3ncnc4[nH]ccc34)nc2c1" strictly below 20 µL/min/mg? false

Problem: For the molecule "CN(C)CCN(C)c1ccc2[nH]c(-c3n[nH]cc3Nc3ncnc4[nH]ccc34)nc2c1" , is microsomal CLint under 20 µL/min/mg? true

Answer whether the molecule "CN(C)c1cccc2[nH]c(-c3n[nH]cc3Nc3ncnc4[nH]ccc34)nc12" has microsomal CLint strictly less than 20 µL/min/mg false

* * *

Experiment: Half life in fasted Sprague-Dawley rat at 10 mg/kg, po measured for 24 hrs by LC-MS/MS analysis
Assay type: ADME, organism-based
Conditions: in vivo
ATTRIBUTE_MEASURED: half-life
Answer format reminder: number followed by unit.

Documented half-life of "CC(C)N1CCN(c2ccc3[nH]c(-c4n[nH]cc4Nc4ncnc5[nH]ccc45)nc3c2)CC1" : 3.79 h

* * *

Target: Tyrosine-protein kinase SYK (Homo sapiens)
pIC50: −log10 of the molar value.
Lab note: compare pIC50 against 8. Equal or greater, write Yes. Smaller, write No.

# GIVEN_SMILES, GROUP
measured = [
    ("COCCOc1ccc2[nH]c(-c3n[nH]cc3Nc3ncnc4[nH]ccc34)nc2c1", "Yes"),
    ("c1ccc(Nc2nccc(Nc3c[nH]nc3-c3nc4ccccc4[nH]3)n2)cc1", "No"),
]

Is pIC50 at least 8? Consider "CN1CCN(c2ccc3[nH]c(-c4n[nH]cc4Nc4ncnc5[nH]ccc45)nc3c2)CC1" Yes

Hello, I need to know if "Cc1cc2nc(-c3n[nH]cc3Nc3ncnc4[nH]ccc34)[nH]c2cc1C" has measured pIC50 not below 8. Thanks! Yes

Could you tell me if the measured pIC50 of "Nc1nccc(Nc2c[nH]nc2-c2nc3ccccc3[nH]2)n1" reaches 8 or more? No

Quick check: does "O=C(Nc1nccc(Nc2c[nH]nc2-c2nc3ccccc3[nH]2)n1)c1ccccc1" have pIC50 greater than or equal to 8? No

# check: pIC50 of "Cc1nc(Nc2c[nH]nc2-c2nc3cc(C)c(C)cc3[nH]2)c2cc[nH]c2n1" is greater than or equal to 8 No

Kindly determine if pIC50 recorded for "c1ccc2[nH]c(-c3n[nH]cc3Nc3ncnc4ccccc34)nc2c1" is above or exactly 8. No

* * *

Assay: AUC in fasted Sprague-Dawley rat at 1 mg/kg, iv measured for 24 hrs by LC-MS/MS analysis
Format: ADME, organism-based
Conditions: in vivo
ATTRIBUTE_MEASURED: AUC at 24 h (ng·h/mL)
Report only the number, with the unit ng·h/mL understood.

# GIVEN_SMILES, AUC at 24 h (ng·h/mL)
rows = [
    ("CN1CCN(c2ccc3[nH]c(-c4n[nH]cc4Nc4ncnc5[nH]ccc45)nc3c2)CC1", 332),
]

The value of AUC at 24 h measured for the compound "CC(C)N1CCN(c2ccc3[nH]c(-c4n[nH]cc4Nc4ncnc5[nH]ccc45)nc3c2)CC1" turned out to be 514

* * *

Experiment: Volume of distribution at steady state in fasted Sprague-Dawley rat at 1 mg/kg, iv measured for 24 hrs by LC-MS/MS analysis
Type: ADME, organism-based
Settings: in vivo, read-out: Vdss
ATTRIBUTE_MEASURED: Vd
Please append the unit to your numeric answer.

# GIVEN_SMILES, Vd
measured = [
    ("CN1CCN(c2ccc3[nH]c(-c4n[nH]cc4Nc4ncnc5[nH]ccc45)nc3c2)CC1", "6.99 L/kg"),
]

Now look at this entry.
Record summary for "CC(C)N1CCN(c2ccc3[nH]c(-c4n[nH]cc4Nc4ncnc5[nH]ccc45)nc3c2)CC1" : reported Vd = 8.93 L/kg

* * *

Biological target: Tyrosine-protein kinase SYK (Homo sapiens)
Test: Inhibition of Syk (unknown origin) assessed as enzyme activity at 2 uM preincubated for 20 mins followed by 33P-gamma-ATP measured after 120 mins by HotSpot assay relative to control
Parameters: scale not given: the % may be the effect or the level left
Settings: time 140.0 min
ATTRIBUTE_MEASURED: Activity (%)
Express it in %; write the number only.

# GIVEN_SMILES, ATTRIBUTE_MEASURED, READING
measured = [
    ("c1ccc2[nH]c(-c3n[nH]cc3Nc3ncnc4c3CCC4)nc2c1", "Activity", 18.5),
    ("Clc1cc(Nc2c[nH]nc2-c2nc3ccccc3[nH]2)nc(N2CCOCC2)n1", "Activity", 91.2),
]

So, "Cn1c(-c2n[nH]cc2Nc2ccnc(N)n2)nc2ccccc21" ? Its Activity was 92.3

Entry "Cc1ccc(CNc2c[nH]nc2-c2nc3ccccc3[nH]2)o1" , Activity reported as 60.5

"c1ccc2[nH]c(-c3n[nH]cc3Nc3ccnc(NCC4CCCCC4)n3)nc2c1" yielded Activity of 47.9
